Each entry below carries its reported growth.
- Test system: MDA-MB-231 breast
- assay.info: NCI-60 one-dose screen, 48 h (100 = growth as untreated, 0 = no growth, -100 = all killed)
- conditions: 10 µM unless noted
This is part of a sample that, as a whole, favours compounds with a hit. Of some 83,000 tested, about 20% had one in any assay.
readout.type: growth (%)

INSERT INTO results (compound, readout_type, output_unit, obs_value) VALUES
  ('COc1ccccc1/C=C\C(=O)c1ccccc1', 'growth', '%', 84.8),
  ('c1ccc2c(c1)Nc1cc3ccccc3cc1N2', 'growth', '%', 33.1),
  ('CC1OC2CC(=O)OC2C2=C1C(=O)c1c(O)cccc1C2=O (configuration not stated)', 'growth', '%', -65.9),
  ('Cc1ccc(N=C=C(c2ccccc2)c2ccccc2)cc1', 'growth', '%', 83.3),
  ('CCC(CC)COC(=O)c1ccc(O)c(O)c1', 'growth', '%', 48.9),
  ('Nc1ccc(SSc2ccc(N)cc2)cc1', 'growth', '%', 82.4),
  ('Cc1ccc2c(ccc3c[n+]4c5ccccc5ccc4n32)c1', 'growth', '%', 19.6);

====

- Tested on: OVCAR-8 ovarian
- assay.info: NCI-60 one-dose screen, 48 h
- conditions: 10 µM unless noted
Compounds without any hit were thinned out: in the full panel of roughly 83,000, 20% have a hit. Calls of active or inactive are those of the source. How the source made its calls: active means growth percent below 10; inactive means the rest.
Classes used: 1 (active), 0 (inactive)

INSERT INTO assay_data (compound, system_under_test, class_assignment) VALUES
  ('CCC1OC(OC)C=CC1=O (stereo unspecified)', 'OVCAR-8 ovarian', 0),
  ('COc1ccc2nc3cc(Cl)ccc3c(NCCNc3c4ccc(Cl)cc4nc4ccc(OC)cc34)c2c1', 'OVCAR-8 ovarian', 1),
  ('Cc1ccnc2c1ccc1c(C)ccnc12', 'OVCAR-8 ovarian', 0),
  ('CN(C)c1ccc(N=Nc2cccc3ccccc23)cc1', 'OVCAR-8 ovarian', 0),
  ('COc1ccccc1/C=C\C(=O)c1ccccc1', 'OVCAR-8 ovarian', 0),
  ('CNC(=O)N/N=C/c1ccc([N+](=O)[O-])o1', 'OVCAR-8 ovarian', 0),
  ('O=Nc1ccccc1N=O', 'OVCAR-8 ovarian', 0),
  ('O[C@H]1[C@H]2c3cc4c(cc3CN3CCC(=C[C@@H]1O)[C@H]23)OCO4', 'OVCAR-8 ovarian', 0),
  ('O=C(Nc1cccc(Br)c1)Oc1ccc(Cl)c2cccnc12', 'OVCAR-8 ovarian', 0),
  ('CC1SC(=S)N(c2ccc(Cl)cc2)C1=O (stereo unspecified)', 'OVCAR-8 ovarian', 0),
  ('c1ccc2c(c1)Nc1cc3ccccc3cc1N2', 'OVCAR-8 ovarian', 0),
  ('Nc1nc(N)c2c(ccc3c2ccn3Cc2cccc([N+](=O)[O-])c2)n1', 'OVCAR-8 ovarian', 1),
  ('Cn1c2c(c3ccccc31)CCN1C[C@@H]3CCCC[C@H]3C[C@@H]21', 'OVCAR-8 ovarian', 0),
  ('CCCCCCC(C)c1ccccc1O (stereo unspecified) (tested in a mixture with another compound)', 'OVCAR-8 ovarian', 0),
  ('NC(=S)N/N=C\c1nccc2c(C(F)(F)C(F)(F)C(F)(F)F)cccc12', 'OVCAR-8 ovarian', 1),
  ('O=C1c2ccccc2C(=O)N1c1ccccc1', 'OVCAR-8 ovarian', 0);
